# Test system: MS2 coat protein
# test-description: apparent KD of MS2 coat protein; designed switch direction (-1 OFF switch, 1 ON switch): 1; higher = weaker reporter binding
# experimental-conditions: input ligand: microRNA oligo, concentration not stated
readout-type: apparent KD of MS2 coat protein (nM)
Answers are plain numbers, in nM.

Need apparent KD of MS2 coat protein of ACAUGAGAGUGAGGAUAUCAUGUACCUACAUGUGACAUGAGGAUCACCCAUGUGGUAAGUAUGACUGAGAAGGCACAGAUAUGU [Equivalance 90 - Jieux - Same State NG 2] (Eterna round: R96, puzzle: Same State NG 2) , thanks.
267

I would be grateful if you could provide apparent KD of MS2 coat protein for each of the following entries.
1. AUUAAUAAUGCAGGAUAUGAUUAACAUGAGGAUCACCCAUGUGGUGUUGUGAGUAAGGAGAGUGAUCAGAAGGGCAUUUUUUUU [JMF's solution 27] (Eterna round: R96, puzzle: Same State NG 2)
2. GGUCGGACUCACAUGAGGAUCACCCAUGUUCCGGAAACGGGACAGGAUAUCUGUCCGAAAAGGUCAGAGAAGGGUCUACCGACC [Fiskers NG3ss - 54] (Eterna round: R96, puzzle: Same State NG 3)
3. UGGCUCAGACGAGGAUAUAUGUCUCGAGCUUCGGCUCGAGACAUGAGGAUCACCCAUGUAAUAACAUAGAAGGCGUCUGAGCCA [SSNG2/1-A2] (Eterna round: R96, puzzle: Same State NG 2)

374
126
25.2

* * *

# System: MS2 coat protein
# test-description: apparent KD of MS2 coat protein; higher = weaker reporter binding
# experimental-conditions: Eterna round: R101; input ligand: FMN 200 uM
Provide the reported apparent KD of MS2 coat protein of each item.
Answers are plain numbers, in µM.

Form field - read-out: apparent KD of MS2 coat protein; system: MS2 coat protein; submitted item: ACUUUAUUUGAGAAGGUGAAGUGGAAACAUGAGGAUCACCCAUGUAAUACGAAGCGUAUUUUUAUCAAGGAUAUCAAAUAAAGA [WHB=ISS-NG2-MS2FAR3 #bad] (puzzle (switch architecture): Inverted Same State NG 2)
0.00758

Form field - read-out: apparent KD of MS2 coat protein; system: MS2 coat protein; submitted item: CUUAGUUUGUAGAAGGGUGACAUGAGGAUCACCCAUGUGCGUCGCCUGAAAGACCAGGGUACGCCACAGGAUAUACAAAGUAAG [Ororzati] (puzzle (switch architecture): Inverted Same State NG 2)
0.0882

I would be grateful if you could provide apparent KD of MS2 coat protein for each of the following entries.
1. GUGCCUUGGGAGAAGGAUAAUUAAUAAUAAAUAAAAGGAUAUUCAUACCGGAAACGGACAUGAGGAUCACCCAUGUGGCACAAA (puzzle (switch architecture): Inverted Same State NG 1)
2. AAUAAAACUCAAGGAUAUGACUCCGAAACGGAGUCAGAAGGUGAGGAUCACCCACCUAGCUCAGCGUCGAAAGACGCUGAGCAA [#SharedSequence ExNG1 - 32] (puzzle (switch architecture): Exclusion NG 1)

0.0454
0.042

* * *

# Test system: MS2 coat protein
# test-description: apparent KD of MS2 coat protein; higher = weaker reporter binding
# experimental-conditions: Eterna round: R107; input ligand: none
Provide the reported apparent KD of MS2 coat protein of each item.
Give bare numbers, in nM.

I would be grateful if you could provide apparent KD of MS2 coat protein for each of the following entries.
1. AAGAAGUUUUGAUUUUUAUGAAGUAGUGAUACCAGUUAAGAAAGAGACCCUUGGCAGCGCAACAUGAGGAUCACCCAUGUAAGAA [Another radom design]
2. ACACGGCAUGAUGGAUCACCUCGUGAAUCACGAGGACCGGUACGGCCGCCACUCGAAAACCGUGACCUGUACGAAAAGUGCAGGA
3. UCCAUCGGCGGAAGCCGAUGGUUUACAGAAGGAGCGUAGGAAACUACAGGUAGGUCGCUGGACAUGAGGAUCACCCAUGUGUUUU [SSAA #12]
4. UGAGAGGGCGGAAGGAGCGACAUGAGGAUCACCCAUGUCUCCCGUUAUGGGAGUUCUUUAGGUCAGGUAGGUCGCCGGCCUCUCA [#1 Exclusion - Arginine B Attempt #10 (Inspired by Omei)]
5. AGAGUUAGACAAAAGUCUAGCUCACCAGAAGGAGCGUCCGAAAGGACAGGUAGGUCGCUGGUGCAUGAGGAUCACCCAUGCUCCU [ArgAS 19 #OpenEnded #AlternativeMS2]

1. 17.3
2. 53
3. 26.5
4. 122
5. 204

* * *

# System: MS2 coat protein
# test-description: apparent KD of MS2 coat protein; higher = weaker reporter binding
# experimental-conditions: Eterna round: R107; input ligand: theophylline 2 mM
readout-type: apparent KD of MS2 coat protein

I would be grateful if you could provide apparent KD of MS2 coat protein for each of the following entries.
1. UCAUUUUUCACGGCCGCCACUUCAAGGUCCUGAGGCUGGGCAACACAUGAGGAUCACCCAUGUCGAAGGACCGGGUGAAGCUACC [theeternabot_sameState_MS2_Trp_B_34]
2. AAGACGGUCGGAAGGAGCGGUACAUGAGGAUCACCCAUGUAUUCCUGGGCAUCCGUAGUGUGCCAGGUAGGUCGCCGAUUGCGGG [XArg-B13]
3. CCAUGCGUAGGAAGGAGCGCAUACUUCACAUGAGGAUCACCCAUGUCGAGACGUGAGUCAGUGCAGGUAGGUCGCCUACGCAUGG [Same State - Arginine B (Freestyle 27)]
4. GCACAUGAGGAUCACCCAUGUAUUACUGAAGGAGCGAGACAGAACUCAGGUAGGUCGCAGACGGCGGAAUCGCCGACGACAUGGG [Exclusion Arginine A GF23]
5. AAAGUUGAUGAGUUGCGUUUGUGUUCCGAAGGAGCGAGAAUUAUCUCAGGUAGGUCGCGGAACAUGAGGAUCACCCAUGUAUAAA [XArg-A 19 NuV1&2 original #dotplot2>1]

527 nM
97.2 nM
20.6 nM
40.7 nM
41.6 nM

* * *

# System: MS2 coat protein
# test-description: apparent KD of MS2 coat protein; designed switch direction (-1 OFF switch, 1 ON switch): 1; higher = weaker reporter binding
# experimental-conditions: input ligand: none
Record TRUE whenever apparent KD of MS2 coat protein is at 60 nM or higher; record FALSE when lower.

Some solved cases for reference:
Form field: apparent KD of MS2 coat protein at least 60 nM? Entry: UCGAGCGUACUUGCAGACAUGAGGAUCACCCAUGUAAAUGGGAAGGAUAUGGUACCGUUUCGGUACCAGAAGGUCCUAGGUGCU [salish99_SSNG3_r04_306] (Eterna round: R96, puzzle: Same State NG 3)
TRUE

Form field: apparent KD of MS2 coat protein at least 60 nM? Entry: UUGAUGAACUGAGGAUAUCGAGUCGUCUCAUUACACAUGAGGAUCACCCAUGUGGGUUGUGGUAUCGAGAAGGCAGAAUACUCA [JR_SSNG2_Sub033] (Eterna round: R96, puzzle: Same State NG 2)
FALSE

Form field: apparent KD of MS2 coat protein at least 60 nM? Entry: AGGCCAUCGGGAGGAUAUGGCACCUUAUUGGUGCCAGAAGGUCCAACAUGAGGAUCACCCAUGUGGGAGUGGUCUAAUGACCAC [Fiskers NG1(ss) - 4] (Eterna round: R96, puzzle: Same State NG 1)
TRUE

***
Form field: apparent KD of MS2 coat protein at least 60 nM? Entry: GUUACAUGAGGAUCACCCAUGUAUGUGUGGGAGUAAGUGUCUUAGGAUAUCUAUUAUUUAAGUUAAGAGAAGGAAGAUUGUUGU [JMF's solution 23] (Eterna round: R96, puzzle: Same State NG 3)
TRUE

Form field: apparent KD of MS2 coat protein at least 60 nM? Entry: AGUGGAGCCUGAGCUCCACAAAAGCAUGUACAUGAGGAUCACCCAUGUCAUGUACAAGCUUUUUGCUCGUCUUAAAA [Mat - hsa-mir-208a - Mod of JL - D18] (Eterna round: R96, puzzle: Sensor for hsa-mir-208a)
TRUE

Form field: apparent KD of MS2 coat protein at least 60 nM? Entry: UGAAUGGUGAUAGGAUAUACAUGAGGAAUCCUCGUAGAAGGAUCAUGACAUGAGGAUCACCCAUGUAGCGCUCAGAAGAGCGCA [Mat - Same State NG 1 - JL mod - D53] (Eterna round: R96, puzzle: Same State NG 1)
TRUE

Form field: apparent KD of MS2 coat protein at least 60 nM? Entry: AUUGCUAGCACAGGAUAUCAUGCGAAAAUUGCGUGAGAAGGGUGGACUCUGUCAUUCACGGAGGACAUGAGGAUCACCCAUGUC [SameState NG1 #80] (Eterna round: R96, puzzle: Same State NG 1)
TRUE

Form field: apparent KD of MS2 coat protein at least 60 nM? Entry: CCAUAACAGUGAGGAUAUCGUUGCGAUAAGUGACGAGAAGGCAUUCAUGUGAAAUAAACAUACAUGAGGAUCACCCAUGUUGUA [Omei SS(NG)1 B] (Eterna round: R96, puzzle: Same State NG 1)
FALSE

Form field: apparent KD of MS2 coat protein at least 60 nM? Entry: GUUACAUGAGGAUCACCCAUGUAUGUGUGGGAGUAAGUGUCUUAGGAUAUCUAUCAUUUAAUGUAAGAGAAGGAAGAUUGUUGU [JMF's solution 97] (Eterna round: R96, puzzle: Same State NG 3)
TRUE

Form field: apparent KD of MS2 coat protein at least 60 nM? Entry: UGCUACUGGGUAGGAUAUUUAGGAUAUGGGAAAGACUAAGUCUGUAGGUCACCUAACCCAGAAGGAGAGAAGGACCAUUCAGCU [pwkr ssNG2 2FMN + F9.33] (Eterna round: R96, puzzle: Same State NG 2)
FALSE

Form field: apparent KD of MS2 coat protein at least 60 nM? Entry: GCAGGAAGCAAAGGAUAUGGAAGAUUACUCAGUCCAGAAGGUUGCUUCUUGGAACAUGAGGAUCACCCAUGUCACCGUUACGGC [Eternabot solution 30] (Eterna round: R96, puzzle: Same State NG 1)
FALSE
